- ASSAY TARGET: stearoyl-CoA desaturase (SCD1) (Mus musculus, UniProt P13516)
- Sequence (P13516 1-355): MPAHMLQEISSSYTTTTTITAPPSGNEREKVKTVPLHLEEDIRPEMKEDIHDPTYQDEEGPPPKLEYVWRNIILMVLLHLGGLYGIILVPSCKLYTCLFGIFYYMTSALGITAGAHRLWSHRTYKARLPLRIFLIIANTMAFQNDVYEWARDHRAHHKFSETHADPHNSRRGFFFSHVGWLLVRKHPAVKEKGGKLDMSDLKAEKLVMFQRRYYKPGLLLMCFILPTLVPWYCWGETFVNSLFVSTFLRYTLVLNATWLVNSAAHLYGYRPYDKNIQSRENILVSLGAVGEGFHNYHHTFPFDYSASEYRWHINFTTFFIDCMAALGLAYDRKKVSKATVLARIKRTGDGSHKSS
PROPERTY MEASURED: IC50 (nM)

Look over these answered cases.
COMPOUND	ASSAY TARGET	IC50 (nM)
Cc1nc(-c2nnn(CC3CC3)n2)sc1C(=O)NCc1cccnc1 (single isomer, unassigned)	stearoyl-CoA desaturase (SCD1) (Mus musculus, UniProt P13516)	310
Cc1nc(-c2cn(CCc3ccc(F)cc3)nn2)sc1C(=O)NCc1ccccc1	stearoyl-CoA desaturase (SCD1) (Mus musculus, UniProt P13516)	20
Cc1nc(-n2cc(Cc3ccccc3)nn2)sc1C(=O)NCc1ccccc1	stearoyl-CoA desaturase (SCD1) (Mus musculus, UniProt P13516)	60

(a) Cc1nc(-c2cn(CCc3ccc(F)cc3)nn2)sc1C(=O)NCc1cccnc1
(b) Cc1nc(-c2cc(Cc3ccccc3)no2)sc1C(=O)NCc1ccccc1
Which item exceeds the other in IC50, a or b ? Pick one; state its label.
b
(b: 600 nM, a: 120 nM)

(1) Cc1nc(-c2cn(Cc3ccccc3)nn2)sc1C(=O)NCc1ccccc1
(2) Cc1nc(-c2nnn(Cc3ccc(F)cc3)n2)sc1C(=O)NCc1cccnc1 (single isomer, unassigned)
Which item exceeds the other in IC50, 1 or 2 ? Pick one; state its label.
2
(2: 510 nM, 1: 30 nM)

====

PROPERTY MEASURED: melting point

Any idea what melting point was measured for Cc1nc(-c2nnn(Cc3ccc(F)cc3)n2)sc1C(=O)NCc1cccnc1 (single isomer, unassigned) [Example 7.1] ?
148 to 149 °C

Any idea what melting point was measured for Cc1nc(-c2cn(Cc3ccc(F)cc3)nn2)sc1C(=O)NCc1ccccc1 [Example 1.2] ?
114 to 115 °C

Any idea what melting point was measured for Cc1nc(-c2n[nH]c(Cc3ccccc3)n2)sc1C(=O)NCc1ccccc1 [Example 8] ?
235 to 237 °C

Any idea what melting point was measured for Cc1nc(-n2cc(C(=O)NCc3ccc(F)cc3)nn2)sc1C(=O)NCc1ccccc1 [Example 18.1] ?
198 to 201 °C

====

We begin with a simple list: items and their reported melting point.

Look over these answered cases.
COMPOUND	melting point
Cc1nc(-c2cn(Cc3ccccc3)nn2)sc1C(=O)NCc1ccccc1 [Example 1.1]	108 to 109 °C
Cc1nc(-c2noc(Cc3ccccc3)n2)sc1C(=O)NCc1ccccc1 [Example 34]	124 to 125 °C
Cc1nc(-n2cc(-c3ccsc3)nn2)sc1C(=O)NCc1ccccc1 [Example 10.11]	123 to 126 °C
Cc1nc(-n2cc(CNc3ccccc3)nn2)sc1C(=O)NCc1ccccc1 [Example 10.10]	159 to 162 °C
Cc1nc(-n2cc(-c3ccc(F)cc3)nn2)sc1C(=O)NCc1ccccc1 [Example 10.13]	203 to 205 °C

Any idea what melting point was measured for Cc1nc(-c2cn(Cc3ccc(C(F)(F)F)cc3)nn2)sc1C(=O)NCc1ccccc1 [Example 1.3] ?
131 to 132 °C

Any idea what melting point was measured for Cc1nc(-c2nn[nH]n2)sc1C(=O)NCc1cccnc1 [Example 6] ?
> 200 °C (dec.)

Any idea what melting point was measured for COc1ccc(-c2cn(-c3nc(C)c(C(=O)NCc4ccccc4)s3)nn2)cc1 [Example 10.5] ?
168 to 171 °C

Any idea what melting point was measured for Cc1cc(-n2nnc(-c3ccccc3)n2)sc1C(=O)NCc1ccccc1 [Example 21] ?
155 to 158 °C

Any idea what melting point was measured for Cc1nc(-n2nnc(C(=O)NCc3ccccc3)c2C)sc1C(=O)NCc1ccccc1 [Example 18.2] ?
183 to 186 °C

Any idea what melting point was measured for Cc1nc(-c2cnc(Cc3ccccc3)o2)sc1C(=O)NCc1ccccc1 [Example 36] ?
141 to 142 °C

Any idea what melting point was measured for Cc1nc(-n2cc(Cc3ccccc3)nn2)sc1C(=O)NCc1ccccc1 [Example 10.1] ?
139 to 141 °C

Any idea what melting point was measured for Cc1nc(-n2cc(-c3ccccc3)nn2)sc1C(=O)NCc1ccccc1 [Example 10] ?
175 to 178 °C

Any idea what melting point was measured for Cc1nc(-n2cc(-c3ccc(OCc4ccccc4)cc3)nn2)sc1C(=O)NCc1ccccc1 [Example 10.8] ?
237 to 240 °C

Any idea what melting point was measured for Cc1nc(-n2cc(CCc3ccccc3)nn2)sc1C(=O)NCc1cccnc1 [Example 14.2] ?
114 to 116 °C

====

PROPERTY MEASURED: melting point

Any idea what melting point was measured for Cc1nc(-c2cc(CCc3ccccc3)no2)sc1C(=O)NCc1ccccc1 [Example 27.1] ?
114 to 115 °C

Any idea what melting point was measured for Cc1cc(-c2ncn(Cc3ccc(F)cc3)n2)sc1C(=O)NCc1ccccc1 [Example 23] ?
128 to 130 °C

Any idea what melting point was measured for Cc1nc(-c2cn(CC(F)(F)c3ccccc3)nn2)sc1C(=O)NCc1cccnc1 [Example 30] ?
150 to 151 °C

Any idea what melting point was measured for Cc1nc(-n2cc(C(=O)NCc3ccccc3)nn2)sc1C(=O)NCc1ccccc1 [Example 18] ?
178 to 180 °C

Any idea what melting point was measured for Cc1nc(-c2cn(Cc3ccc(F)cc3)nn2)sc1C(=O)NCc1cccnc1 [Example 4.1] ?
212 to 213 °C

Any idea what melting point was measured for Cc1cc(-c2n[nH]c(Cc3ccccc3)n2)sc1C(=O)NCc1ccccc1 [Example 9] ?
168 to 171 °C

Any idea what melting point was measured for Cc1nc(-n2cc(-c3cccnc3)nn2)sc1C(=O)NCc1ccccc1 [Example 10.9] ?
117 to 119 °C

Any idea what melting point was measured for Cc1nc(-n2cc(CCCc3ccccc3)nn2)sc1C(=O)NCc1cccnc1 [Example 14] ?
108 to 110 °C

Any idea what melting point was measured for Cc1nc(-c2cn(CCc3ccc(F)cc3)nn2)sc1C(=O)NCc1ccccc1 [Example 1] ?
181 to 182 °C

====

We begin with a simple list: items and their reported melting point.

Look over these answered cases.
COMPOUND	melting point
Cc1nc(-n2cc([C@H](O)c3ccccc3)nn2)sc1C(=O)NCc1ccccc1	146 to 149 °C
Cc1nc(-n2cc(COc3ccccc3)nn2)sc1C(=O)NCc1ccccc1	140 to 143 °C
Cc1nc(-c2nnn(CC3CC3)n2)sc1C(=O)NCc1cccnc1 (single isomer, unassigned)	149 to 150 °C
Cc1nc(-n2[nH]c(C)c(Cc3ccc(Cl)cc3)c2=O)sc1C(=O)NCc1cccnc1	215 to 217 °C
Cc1nc(-n2cc(CCc3ccccc3)nn2)sc1C(=O)NCc1ccccc1	167 to 170 °C
Cc1nc(-n2cc(C(O)c3ccccc3)nn2)sc1C(=O)NCc1ccccc1 (centres unmarked)	143 to 146 °C

Any idea what melting point was measured for Cc1nc(-n2cc(CCCc3ccccc3)nn2)sc1C(=O)NCc1ccccc1 ?
94 to 97 °C

Any idea what melting point was measured for Cc1cc(-c2ncn(Cc3ccc(F)cc3)n2)sc1C(=O)NCc1cccnc1 ?
154 to 155 °C

Any idea what melting point was measured for Cc1nc(-c2nnnn2Cc2ccc(C(F)(F)F)cc2)sc1C(=O)NCc1cccnc1 (single isomer, unassigned) ?
175 to 176 °C

Any idea what melting point was measured for Cc1nc(-n2cc(-c3ccccn3)nn2)sc1C(=O)NCc1ccccc1 ?
184 to 187 °C

Any idea what melting point was measured for Cc1nc(-n2cc(C(=O)c3ccccc3)nn2)sc1C(=O)NCc1ccccc1 ?
176 to 178 °C

Any idea what melting point was measured for Cc1cc(-c2n[nH]c(Cc3ccccc3)n2)sc1C(=O)NCc1cccnc1 ?
82 °C (dec.)

Any idea what melting point was measured for Cc1nc(-c2cn(Cc3ccccc3)nn2)sc1C(=O)NCc1cccnc1 ?
212 to 213 °C

Any idea what melting point was measured for Cc1nc(-c2cn(CCc3ccc(F)cc3)nn2)sc1C(=O)NCc1cccnc1 ?
149 to 150 °C

Any idea what melting point was measured for Cc1nc(-n2cc(CCCc3ccccc3)nn2)sc1C(=O)NCc1ccc(F)c(F)c1 ?
81 to 84 °C

Any idea what melting point was measured for Cc1nc(-c2cn(CC3CC3)nn2)sc1C(=O)NCc1cccnc1 ?
140 to 141 °C

Any idea what melting point was measured for Cc1nc(-c2cc(Cc3ccccc3)no2)sc1C(=O)NCc1ccccc1 ?
103 to 104 °C

Any idea what melting point was measured for Cc1nc(-n2cc(CCC3CCCCC3)nn2)sc1C(=O)NCc1ccccc1 ?
82 to 84 °C

Any idea what melting point was measured for Cc1nc(-c2cn(Cc3ccc(C(F)(F)F)cc3)nn2)sc1C(=O)NCc1cccnc1 ?
204 to 205 °C

Any idea what melting point was measured for Cc1nc(-c2cn(CCC3CC3)nn2)sc1C(=O)NCc1cccnc1 ?
124 to 125 °C
